- Test system: cucumber leaves
- experimentSummary: Plant growth promotion, width of cucumber leaf
- Format: in vivo
- assaySetup: 1.0 ppm; non-treated = 100.0 (92.1 mm); unit of the source corrected
- Experimental: The active ingredients (Compounds 5 to 8, 14, and 15) were drenched to the leaves of a plant (pepper, potato, tomato, tobacco, cucumber, and Chinese cabbage), and then, after 7 days, the plant lengths were measured. Since then, the plant disease pathogen was inoculated, and then, after 3 to 5 days, the sizes of the plant leaves were measured and compared with the control group to obtain the relative growth degrees.
Peptide text beside a SMILES is read from it. * marks the point of attachment. Boc = CC(C)(C)OC(=O)*
measure: Width of cucumber leaf (relative value to the non-treated group) (%)

>  <compound>
COC(=O)[C@H](C)NC(=O)CNC(=O)OC(C)(C)C [Compound 14] (Boc-Gly-Ala-OMe)

>  <testValue>
104

$$$$
>  <compound>
COC(=O)CNC(=O)[C@@H](NC(=O)OC(C)(C)C)C(C)C [Compound 5] (Boc-Val-Gly-OMe)

>  <testValue>
100

$$$$
>  <compound>
COC(=O)C(CC(C)C)NC(=O)C(N)C(C)O (stereo not drawn) [Compound 8] (H-Thr-Leu-OMe; configuration not given here)

>  <testValue>
122

$$$$
>  <compound>
COC(=O)CNC(=O)[C@@H](N)C(C)C [Compound 6] (H-Val-Gly-OMe)

>  <testValue>
114

$$$$
>  <compound>
COC(=O)C(CC(C)C)NC(=O)C(NC(=O)OC(C)(C)C)C(C)O (stereo not drawn) [Compound 7] (Boc-Thr-Leu-OMe; configuration not given here)

>  <testValue>
110

$$$$
>  <compound>
COC(=O)[C@H](C)NC(=O)[C@H](Cc1ccc(O)cc1)NC(=O)OC(C)(C)C

>  <testValue>
98.9

$$$$
